# reported Response value; entries follow
- Target Of Assay: T1, biotin-labeled mouse ADM (mouse, not fully specified; biotin label (named mouse ADM-C-biotin in Example 1.4; position of the biotin not stated for the other lots))
- T1 construct: Synthetic peptide; also called mouse ADM-C-biotin; mADM-Biotin
- T1 peptide: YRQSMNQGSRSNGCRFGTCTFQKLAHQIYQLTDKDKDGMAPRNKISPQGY
- Assay Info: BLI (Octet RED96e), as in Example 3
Form field (numeric): enter value without unit.

Ab2004.Am40 (IgG1 antibody) (antibody, V domains shown, Expressed in CHO cells, human IgG1/kappa) VH: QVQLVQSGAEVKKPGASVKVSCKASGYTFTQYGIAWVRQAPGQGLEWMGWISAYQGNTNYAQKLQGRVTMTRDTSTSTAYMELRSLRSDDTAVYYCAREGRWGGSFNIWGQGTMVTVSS VL: DIQMTQSPSSLSASVGDRVTITCRASQGISSYLAWYQQKPGKAPKLLIYDASNLETGVPSRFSGSGSGTDFTFTISSLQPEDIATYYCQQYDDLPLSFGGGTKVEIKR = 2.65
Ab2004.Am36 (IgG1 antibody) (antibody, V domains shown, Expressed in CHO cells, human IgG1/kappa) VH: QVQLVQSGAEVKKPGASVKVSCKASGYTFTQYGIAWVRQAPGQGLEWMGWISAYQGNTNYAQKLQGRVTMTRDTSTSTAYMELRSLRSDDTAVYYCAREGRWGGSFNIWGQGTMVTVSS VL: DIQMTQSPSSLSASVGDRVTITCRASQGISSYLAWYQQKPGKAPKLLIYDASNVDTGVPSRFSGSGSGTDFTFTISSLQPEDIATYYCQQYDNLPLTFGGGTKVEIKR = 2.75
Ab2004.Am35 (IgG1 antibody) (antibody, V domains shown, Expressed in CHO cells, human IgG1/kappa) VH: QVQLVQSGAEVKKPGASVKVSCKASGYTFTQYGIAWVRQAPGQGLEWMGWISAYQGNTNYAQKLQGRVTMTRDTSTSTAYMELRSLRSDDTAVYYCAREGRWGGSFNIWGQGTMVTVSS VL: DIQMTQSPSSLSASVGDRVTITCRASQGISSYLAWYQQKPGKAPKLLIYDVSILDAGVPSRFSGSGSGTDFTFTISSLQPEDIATYYCQQYDNLPLTFGGGTKVEIKR = 2.74
Ab2004.Am37 (IgG1 antibody) (antibody, V domains shown, Expressed in CHO cells, human IgG1/kappa) VH: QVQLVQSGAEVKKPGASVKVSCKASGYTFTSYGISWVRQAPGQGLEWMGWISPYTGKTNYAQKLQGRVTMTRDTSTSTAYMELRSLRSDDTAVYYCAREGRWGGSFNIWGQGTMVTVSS VL: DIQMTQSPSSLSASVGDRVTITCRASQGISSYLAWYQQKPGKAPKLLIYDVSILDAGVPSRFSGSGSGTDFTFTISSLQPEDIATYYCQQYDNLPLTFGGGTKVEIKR = 2.85
Ab2004.Am32 (IgG1 antibody) (antibody, V domains shown, Expressed in CHO cells, human IgG1/kappa) VH: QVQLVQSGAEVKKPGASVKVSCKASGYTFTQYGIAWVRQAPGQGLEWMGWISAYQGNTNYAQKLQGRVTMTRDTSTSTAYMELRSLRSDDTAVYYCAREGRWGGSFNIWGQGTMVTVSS VL: DIQMTQSPSSLSASVGDRVTITCRAAEGIGSYLAWYQQKPGKAPKLLIYDASNLETGVPSRFSGSGSGTDFTFTISSLQPEDIATYYCQQYDNLPLTFGGGTKVEIKR = 2.76

// Response value lookup, binder = Ab2004.Am31 (IgG1 antibody) (antibody, V domains shown, Expressed in CHO cells, human IgG1/kappa) VH: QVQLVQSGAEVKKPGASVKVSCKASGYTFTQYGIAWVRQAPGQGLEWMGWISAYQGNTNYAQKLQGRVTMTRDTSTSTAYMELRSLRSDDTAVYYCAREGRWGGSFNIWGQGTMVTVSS VL: DIQMTQSPSSLSASVGDRVTITCRASEGISEYLAWYQQKPGKAPKLLIYDASNLETGVPSRFSGSGSGTDFTFTISSLQPEDIATYYCQQYDNLPLTFGGGTKVEIKR , result: 2.81

// Response value lookup, binder = Ab2004.Am34 (IgG1 antibody) (antibody, V domains shown, Expressed in CHO cells, human IgG1/kappa) VH: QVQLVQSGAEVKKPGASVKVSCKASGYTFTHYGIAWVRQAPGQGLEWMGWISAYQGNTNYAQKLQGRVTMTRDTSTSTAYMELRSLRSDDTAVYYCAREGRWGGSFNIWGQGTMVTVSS VL: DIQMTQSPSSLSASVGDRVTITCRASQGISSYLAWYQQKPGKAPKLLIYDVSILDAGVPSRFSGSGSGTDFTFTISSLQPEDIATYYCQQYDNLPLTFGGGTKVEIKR , result: 2.78

All values here come from patent US20260035456A1.
